FYI, the data here is from patent US20220033501A1.

# measurement.target: T1, human TIM-3 protein on human PBMC (human, UniProt Q8TDQ0 22-301)
# T1 sequence: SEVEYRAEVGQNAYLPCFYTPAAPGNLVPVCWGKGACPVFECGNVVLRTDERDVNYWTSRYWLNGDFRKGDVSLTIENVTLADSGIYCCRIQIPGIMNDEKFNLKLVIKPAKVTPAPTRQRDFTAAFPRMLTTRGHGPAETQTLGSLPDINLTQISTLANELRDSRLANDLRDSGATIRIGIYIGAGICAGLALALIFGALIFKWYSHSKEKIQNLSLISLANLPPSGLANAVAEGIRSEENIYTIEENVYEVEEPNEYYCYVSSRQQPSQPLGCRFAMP
# assay.details: cell-based or functional assay
quantity.kind: IFN-γ production, lymphocyte activation assay (donor Y), antibody 0.1 µg/ml, N = 1

INSERT INTO results (binder, measured_value) VALUES
  ('fully human TIM-3 antibody 39E5H1 (antibody, human IgG4, V domains shown, also called antibody number 6) VH: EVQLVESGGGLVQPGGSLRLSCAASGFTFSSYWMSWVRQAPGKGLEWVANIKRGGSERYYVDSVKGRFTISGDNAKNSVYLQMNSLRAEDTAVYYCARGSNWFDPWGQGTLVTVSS VL: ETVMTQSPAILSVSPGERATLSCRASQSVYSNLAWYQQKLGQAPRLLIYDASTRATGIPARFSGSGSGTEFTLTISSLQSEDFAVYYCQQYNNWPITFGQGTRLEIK', '2710 pg/mL'),
  ('fully human TIM-3 antibody 134H3G6 (antibody, human IgG4, V domains shown, also called antibody number 3) VH: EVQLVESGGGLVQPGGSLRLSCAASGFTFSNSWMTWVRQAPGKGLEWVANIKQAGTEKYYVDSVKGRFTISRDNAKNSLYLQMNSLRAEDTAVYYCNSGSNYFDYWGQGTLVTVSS VL: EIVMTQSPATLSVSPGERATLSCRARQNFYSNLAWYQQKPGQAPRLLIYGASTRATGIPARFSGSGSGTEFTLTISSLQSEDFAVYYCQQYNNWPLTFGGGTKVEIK', '2220 pg/mL'),
  ('fully human TIM-3 antibody 57F4E5 (antibody, human IgG4, V domains shown, also called antibody number 7) VH: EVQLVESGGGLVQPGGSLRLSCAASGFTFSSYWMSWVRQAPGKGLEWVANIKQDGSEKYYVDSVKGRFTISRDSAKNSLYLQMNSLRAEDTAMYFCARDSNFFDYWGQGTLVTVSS VL: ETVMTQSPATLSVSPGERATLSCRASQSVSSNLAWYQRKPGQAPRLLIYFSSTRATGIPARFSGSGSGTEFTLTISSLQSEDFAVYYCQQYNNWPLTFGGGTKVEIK', '3210 pg/mL');
